- Tested on: Klebs. pneum. 10.031
- EXPERIMENTAL_DETAILS: M.I.C. in vitro, nutrient agar dilution
- Type: cell-based
- RUN_PARAMETERS: 18 h; Table 2; Klebs. pneum. 10.031 (Gram negative); read-out: M.I.C.
- Method: After sterilisation at 120° C., the pH was 6.8. The minimum inhibitory concentrations (M.I.C.) were determined by dilution of the test compounds in this mixture, the concentration ranging from 0.05 to 100 μg/cm^3 in a geometric progression with a factor of 2. The inoculation of the dishes was carried out by means of a multiple inoculator with 10^-3 dilutions of 18 hour old broth cultures. The dishes were placed in an oven at 37° C. and the readings were taken afer an incubation time of 18 hours. […]
For each entry below, report its MIC value.
Please respond with the number in mg/L and leave the unit unwritten.

Q: Answer with the recorded MIC of CCn1cc(C(=O)O)c(=O)c2cc(Cl)c(N3CCNCC3)cc21 [Example 3] only.
Ans: 0.2

Q: Write down MIC measured for item CCn1cc(C(=O)O)c(=O)c2ccc(N3CCN(CCO)CC3)cc21 [Example T4, reference compound]
Ans: 3.1

Q: Supply MIC value. Item: CCn1cc(C(=O)O)c(=O)c2cc(Cl)c(N3CCN(Cc4ccccc4)CC3)cc21 [Example 5]
Ans: 0.4

Q: Item CCn1cc(C(=O)O)c(=O)c2ccc(N3CCN(C)CC3)cc21 [Example T1, reference compound] : provide MIC
Ans: 0.8

Q: Specify MIC for CCn1cc(C(=O)O)c(=O)c2cc(Cl)c(N3CCN(CCO)CC3)cc21 [Example 4] and stop.
Ans: 0.4

Q: For the molecule CCn1cc(C(=O)O)c(=O)c2cc(Cl)c(N3CCN(C)CC3)cc21 [Example 1] , give its reported MIC.
Ans: 0.2

Q: Provide measured MIC value, entry: CCn1cc(C(=O)O)c(=O)c2cc(Cl)c(N3CCOCC3)cc21 [Example 7]
Ans: 0.2
